Observed Kd values for T-cell surface glycoprotein CD4 (Homo sapiens, UniProt P01730) are listed in what follows.
Numbered stars: 1 amine (or outer) side, 2 acyl side, 3 side chain; on linkers, the order of the positions; unused ones are H or OH. Square brackets hold non-standard residues; d marks the D form. Peptide text beside a SMILES is read from it. * marks the point of attachment. Acetyl(2-naphthyloxy) = O=C(COc1ccc2ccccc2c1)*; X1 = O=C(OC[C@@H]1CCCN1[*:1])[*:2]; X2 = S=C(NC1CC1)OC[C@@H]1CCCN1*; NHcHex = C1CCC(N*)CC1; NHcPent = C1CCC(N*)C1; NHtBu = CC(C)(C)N*

molecule	Kd
CC(C)[C@H](NC(=O)[C@H](CCCCN)NC(=O)COc1ccc2ccccc2c1)C(=O)NCC(=O)N[C@H](C(=O)N1CCC[C@H]1COC(=O)NC1CCCCC1)[C@@H](C)O ({Acetyl(2-naphthyloxy)}-KVGT[X1]-NHcHex)	35 µM
CC(C)[C@H](NC(=O)[C@H](CCCCN)NC(=O)COc1ccc2ccccc2c1)C(=O)NCC(=O)N[C@H](C(=O)N1CCC[C@H]1COC(=O)NC(C)(C)C)[C@@H](C)O ({Acetyl(2-naphthyloxy)}-KVGT[X1]-NHtBu)	6 µM
CCOC(=O)CNC(=O)OC[C@@H]1CCCN1C(=O)[C@@H](NC(=O)CNC(=O)[C@@H](NC(=O)[C@H](CCCCN)NC(=O)COc1ccc2ccccc2c1)C(C)C)[C@@H](C)O ({Acetyl(2-naphthyloxy)}-KVGT[X1]G-OEt)	26 µM
CC(C)[C@H](NC(=O)[C@H](CCCCN)NC(=O)COc1ccc2ccccc2c1)C(=O)NCC(=O)N[C@H](C(=O)N1CCC[C@H]1COC(=O)NC1CCCC1)[C@@H](C)O ({Acetyl(2-naphthyloxy)}-KVGT[X1]-NHcPent)	16 µM
CC(C)[C@H](NC(=O)[C@H](CCCCN)NC(=O)COc1ccc2ccccc2c1)C(=O)NCC(=O)N[C@H](C(=O)N1CCC[C@H]1COC(=S)NC1CC1)[C@@H](C)O ({Acetyl(2-naphthyloxy)}-KVGT-X2)	27 µM
